Here's a batch of compounds along with measured Ki for Prothrombin (Homo sapiens, UniProt P00734).
valueKind: Ki (µM)

C[C@H]1CC(C)(C)C[C@@H]1Oc1cccc(-c2nc3cc(F)c(C(=N)N)cc3[nH]2)c1O    14
C[C@H]1CC[C@@H](Oc2cccc(-c3nc4cc(F)c(C(=N)N)cc4[nH]3)c2O)CC1    10
C[C@H]1CCC[C@H](Oc2cccc(-c3nc4cc(C(=N)N)c(F)cc4[nH]3)c2O)C1    22
CCOc1cccc(-c2cc3cc(C(=N)N)ccc3[nH]2)c1O    9

* * *

- systemName: Tissue-type plasminogen activator (Homo sapiens, UniProt P00750)
- Sequence (P00750 whole entry): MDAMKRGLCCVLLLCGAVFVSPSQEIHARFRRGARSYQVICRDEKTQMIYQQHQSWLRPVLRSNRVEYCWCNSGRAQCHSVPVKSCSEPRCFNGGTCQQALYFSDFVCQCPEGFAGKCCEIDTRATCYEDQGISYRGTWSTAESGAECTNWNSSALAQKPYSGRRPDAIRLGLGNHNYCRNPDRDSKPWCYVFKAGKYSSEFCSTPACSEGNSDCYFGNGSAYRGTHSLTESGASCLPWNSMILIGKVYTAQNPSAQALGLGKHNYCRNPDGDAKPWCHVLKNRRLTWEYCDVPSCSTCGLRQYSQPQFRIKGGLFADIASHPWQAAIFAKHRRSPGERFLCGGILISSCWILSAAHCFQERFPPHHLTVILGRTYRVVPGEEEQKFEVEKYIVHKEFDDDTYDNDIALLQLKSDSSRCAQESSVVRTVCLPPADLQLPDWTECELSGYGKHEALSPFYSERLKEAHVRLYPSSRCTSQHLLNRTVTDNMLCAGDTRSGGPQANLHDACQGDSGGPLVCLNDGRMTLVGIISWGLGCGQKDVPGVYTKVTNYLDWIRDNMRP
pKi: −log10 of the molar value.
valueKind: pKi

N=C(N)c1cc2[nH]c(-c3cccc(OCC4CCCO4)c3O)nc2cc1F (stereo not drawn)    4.35
CC(C)COc1cccc(-c2cc3cc(C(=N)N)ccc3[nH]2)c1O    6.06
CC(C)COc1cccc(-c2nc3ccc(C(=N)N)cc3[nH]2)c1O    6.00
CCOc1cccc(-c2cc3cc(C(=N)N)ccc3[nH]2)c1O    5.77
N=C(N)c1cc2[nH]c(-c3cccc(OC[C@H]4CCCN4)c3O)nc2cc1F    3.56
N=C(N)c1ccc2nc(-c3cccc(OC4CCCC4)c3O)[nH]c2c1    6.16
N=C(N)c1cc2[nH]c(-c3cccc(OC4CCCC4)c3O)nc2cc1Cl    4.54
C[C@H]1CCC[C@@H]1Oc1cccc(-c2nc3cc(F)c(C(=N)N)cc3[nH]2)c1O    4.36
N=C(N)c1ccc2[nH]c(-c3cccc(OC4CCCC4)c3O)cc2c1    6.23
CC(C)COc1cccc(-c2nc3cc(Cl)c(C(=N)N)cc3[nH]2)c1O    4.80
N=C(N)c1cc2[nH]c(-c3cccc(OC4CCCC4)c3O)nc2cc1F    4.48
CCOc1cccc(-c2nc3cc(C(=N)N)ccc3[nH]2)c1O    5.49
N=C(N)c1ccc2nc(-c3cccc(Oc4ccccc4)c3O)[nH]c2c1    6.00
C[C@@H]1CCCC[C@@H]1Oc1cccc(-c2nc3cc(C(=N)N)c(F)cc3[nH]2)c1O    4.24
N=C(N)c1cc2[nH]c(-c3cccc(OCC4CCCNC4)c3O)nc2cc1F (stereo not drawn)    3.58
N=C(N)c1ccc2[nH]c(-c3cccc(Oc4ccccc4)c3O)cc2c1    7.46
C[C@H]1CCC[C@H](Oc2cccc(-c3nc4cc(C(=N)N)c(F)cc4[nH]3)c2O)C1    3.82
C[C@H]1CCCC[C@@H]1Oc1cccc(-c2nc3cc(C(=N)N)c(F)cc3[nH]2)c1O    4.54
C[C@H]1CC[C@@H](Oc2cccc(-c3nc4cc(F)c(C(=N)N)cc4[nH]3)c2O)CC1    4.15
C[C@H]1CC(C)(C)C[C@@H]1Oc1cccc(-c2nc3cc(F)c(C(=N)N)cc3[nH]2)c1O    3.37
N=C(N)c1cc2[nH]c(-c3cccc(OC4CCNC4)c3O)nc2cc1F (stereo not drawn)    3.65

* * *

- systemName: Coagulation factor X (Homo sapiens, UniProt P00742)
- Sequence (P00742 41-179 limits assumed): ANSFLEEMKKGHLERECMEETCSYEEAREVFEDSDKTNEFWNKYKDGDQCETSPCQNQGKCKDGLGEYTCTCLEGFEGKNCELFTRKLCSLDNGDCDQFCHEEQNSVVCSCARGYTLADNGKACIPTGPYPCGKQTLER
- Sequence (P00742 235-488 limits assumed): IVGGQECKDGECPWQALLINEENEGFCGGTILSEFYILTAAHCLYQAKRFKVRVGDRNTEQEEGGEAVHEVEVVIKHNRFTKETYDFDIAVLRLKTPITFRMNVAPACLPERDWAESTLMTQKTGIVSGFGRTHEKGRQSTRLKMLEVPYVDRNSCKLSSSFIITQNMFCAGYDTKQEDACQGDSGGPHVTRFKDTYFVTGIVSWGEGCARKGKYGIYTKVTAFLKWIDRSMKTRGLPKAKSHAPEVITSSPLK
pKi: −log10 of the molar value.
valueKind: pKi

CCOc1cccc(-c2nc3cc(C(=N)N)ccc3[nH]2)c1O    5.17
CC(C)COc1cccc(-c2nc3cc(Cl)c(C(=N)N)cc3[nH]2)c1O    4.47
N=C(N)c1ccc2[nH]c(-c3cccc(OC4CCCC4)c3O)cc2c1    6.00
CCOc1cccc(-c2cc3cc(C(=N)N)ccc3[nH]2)c1O    5.68
C[C@H]1CCC[C@H](Oc2cccc(-c3nc4cc(C(=N)N)c(F)cc4[nH]3)c2O)C1    4.42
CC(C)COc1cccc(-c2cc3cc(C(=N)N)ccc3[nH]2)c1O    5.77

// provenance: ChEMBL document CHEMBL1135195
